Target: Recombinant ROCK2 (amino acids 5-554) (Homo sapiens, UniProt O75116)
Construct: ROCK2 (amino acids 5-554)
Sequence (O75116 5-554): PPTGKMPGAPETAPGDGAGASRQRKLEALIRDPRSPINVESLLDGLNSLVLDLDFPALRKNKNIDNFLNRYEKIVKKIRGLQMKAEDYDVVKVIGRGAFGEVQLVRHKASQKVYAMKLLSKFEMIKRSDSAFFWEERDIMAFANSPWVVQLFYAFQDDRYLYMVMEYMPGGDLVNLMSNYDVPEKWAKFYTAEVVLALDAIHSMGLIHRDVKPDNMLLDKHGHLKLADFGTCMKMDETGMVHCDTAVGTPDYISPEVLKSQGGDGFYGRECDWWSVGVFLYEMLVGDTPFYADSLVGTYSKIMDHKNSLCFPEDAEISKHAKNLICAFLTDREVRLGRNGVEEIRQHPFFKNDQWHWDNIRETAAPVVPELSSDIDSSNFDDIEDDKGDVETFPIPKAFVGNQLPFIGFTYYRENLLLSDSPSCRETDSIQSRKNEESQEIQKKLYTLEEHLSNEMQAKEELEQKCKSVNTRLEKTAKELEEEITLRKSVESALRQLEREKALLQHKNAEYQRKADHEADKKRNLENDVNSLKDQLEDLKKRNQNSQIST
Test: ROCK inhibition assay, LANCE Ultra TR-FRET (ROCK2)
Assay type: biochemical
Settings: 1 mM of ATP
IC50 values for the molecules below.

Solved cases (2 shown):
CN(C)CCn1cc(C(=O)C2COc3ccc(Cl)cc3C2)c2ccc(-c3c[nH]nc3Cl)cc21 (centres unmarked) : 21 to 200 nM
CN(C)CCn1cc(C(=O)C2COc3ccc(F)cc3C2)c2ccc(-c3c[nH]nc3Cl)cc21 (centres unmarked) : 21 to 200 nM

Ask | Supply reported IC50 belonging to this molecule: CCN(CC)CCn1cc(C(=O)C2COc3ccc(Cl)cc3C2)c2ccc(-c3cn[nH]c3Cl)cc21 (centres unmarked)
Reply | 21 to 200 nM

Ask | Supply IC50 value. Item: COc1ccc2c(c1)CC(C(=O)c1cn(C[C@@H]3CCN3C)c3cc(-c4cn[nH]c4OC)ccc13)CO2 (some centres unmarked)
Reply | < 20 nM

Ask | Report measured IC50; entry is COc1ccc2c(c1)CC(C(=O)c1cn(C[C@H]3CCN3)c3cc(-c4cn[nH]c4F)ccc13)CO2 (some centres unmarked)
Reply | < 20 nM

Ask | Specify measured IC50 for CCN(C)CCn1cc(C(=O)C2COc3ccc(OC)cc3C2)c2ccc(-c3cn[nH]c3F)cc21 (centres unmarked) .
Reply | 21 to 200 nM

Ask | Give reported IC50 value for CCN1CC[C@@H]1Cn1cc(C(=O)[C@@H]2COc3ccc(OC)cc3C2)c2ccc(-c3cn[nH]c3Cl)cc21
Reply | < 20 nM

Ask | Quickly give me recorded IC50 for COc1[nH]ncc1-c1ccc2c(C(=O)C3COc4ccc(F)cc4C3)cn(CCN(C)C)c2c1 (centres unmarked)
Reply | < 20 nM

Ask | Look up and report measured IC50 for this entry: COc1ccc2c(c1)CC(C(=O)c1cn(C[C@@H]3CCN3C)c3cc(-c4cn[nH]c4Cl)ccc13)CO2 (some centres unmarked)
Reply | 21 to 200 nM

Ask | Answer with the recorded IC50 of CN(C)CCn1nc(C(=O)C2COc3ccc(F)cc3C2)c2ccc(-c3c[nH]nc3F)cc21 (centres unmarked) only.
Reply | < 20 nM

Ask | Identify measured IC50 associated with CNCCn1cc(C(=O)C2COc3ccc(OC)cc3C2)c2ccc(-c3cn[nH]c3Cl)cc21 (centres unmarked)
Reply | < 20 nM

Ask | Give the reported IC50 for this molecule. COc1n[nH]cc1-c1ccc2c(C(=O)[C@@H]3COc4ccc(Cl)cc4C3)cn(CCCN(C)C)c2c1
Reply | 21 to 200 nM

Ask | Determine from records and report IC50 for CN1CC(Cn2cc(C(=O)C3COc4ccc(Cl)cc4C3)c3ccc(-c4cn[nH]c4F)cc32)C1 (centres unmarked)
Reply | < 20 nM

Ask | For the molecule CN(C)CCn1cc(C(=O)[C@H]2COc3ccc(Cl)cc3C2)c2ccc(-c3cn[nH]c3Cl)cc21 , report IC50.
Reply | 201 to 500 nM

Ask | Report IC50 for COc1n[nH]cc1-c1ccc2c(C(=O)[C@H]3COc4ccc(Cl)cc4C3)nn(CCN(C)C)c2c1
Reply | 21 to 200 nM

Ask | Fill in IC50 for record COc1ccc2c(c1)C[C@H](C(=O)c1cn(C[C@H]3CCN3CC(F)F)c3cc(-c4c[nH]nc4Cl)ccc13)CO2
Reply | < 20 nM

Ask | Report IC50, nothing else, for this molecule: CN(C)CCn1nc(C(=O)C2COc3ccccc3O2)c2ccc(-c3cn[nH]c3)cc21 (centres unmarked)
Reply | 21 to 200 nM

Ask | Please indicate IC50 recorded for COc1[nH]ncc1-c1ccc2c(C(=O)C3COc4ccc(Cl)cc4C3)cn(C[C@@H](C)N(C)C)c2c1 (some centres unmarked)
Reply | < 20 nM
